# L/H ratio listing for each entry below
biological target: 5-HT1A receptor (Sus scrofa); construct: Swine hippocampus was homogenized in a 50 mM Tris-Hcl buffer; from tissue; host or cells: swine hippocampus, membrane fraction; assay: Affinity for serotonin 1A receptor: inhibition of [3H]MPPF binding in swine hippocampal membrane fraction; conditions: low affinity IC50 divided by high affinity IC50; 1 or smaller = no intrinsic activity, 2 or greater = intrinsic activity
Sequence (A0A4X1UTF5 1-422): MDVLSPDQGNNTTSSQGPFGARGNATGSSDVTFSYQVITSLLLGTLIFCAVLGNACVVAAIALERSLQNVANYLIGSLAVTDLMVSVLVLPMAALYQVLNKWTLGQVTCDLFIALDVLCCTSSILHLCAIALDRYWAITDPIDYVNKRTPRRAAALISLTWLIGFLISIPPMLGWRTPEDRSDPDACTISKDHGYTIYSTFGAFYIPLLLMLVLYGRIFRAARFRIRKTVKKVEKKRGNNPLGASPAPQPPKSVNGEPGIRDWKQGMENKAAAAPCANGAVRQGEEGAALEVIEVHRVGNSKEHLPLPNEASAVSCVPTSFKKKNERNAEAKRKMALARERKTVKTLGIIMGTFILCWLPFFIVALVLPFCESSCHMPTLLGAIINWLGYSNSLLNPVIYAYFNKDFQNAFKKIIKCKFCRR

Record excerpt, results attached:
COc1ccc2c(=O)c(C)c(C)oc2c1CCN1CCC(n2ccc3ccc(C(N)=O)cc32)CC1 [Compound 36] = 0.5
COc1ccc2c(c1CCN1CCC(n3ccc4ccc(C(N)=O)cc43)CC1)CCC2=O [Compound 25] = 0.9

*Q* # L/H ratio lookup, item COc1ccc2c(c1CCN1CCC(n3ccc4ccc(C(N)=O)cc43)CC1)OCCC2=O [Compound 47]
*A* 1

*Q* Try COc1ccc2c(c1CCN1CCC(n3ccc4ccc(C(N)=O)cc43)CC1)OCCO2 [Compound 32] next.
*A* 1

*Q* Try COc1cc2c(cc1CCN1CCC(n3ccc4ccc(C(N)=O)cc43)CC1)OCCO2 [Compound 31] next.
*A* 0.9

*Q* Try COc1cc2nc(C)sc2cc1CCN1CCC(n2ccc3ccc(C(N)=O)cc32)CC1 [Compound 28] next.
*A* 1.4

*Q* Try COc1cc2c(cc1CCN1CCC(n3ccc4ccc(C(N)=O)cc43)CC1)N(C(C)=O)CCC2 [Compound 52] next.
*A* 0.9

*Q* Try NC(=O)c1ccc2ccn(C3CCN(CCc4ccc(F)cc4)CC3)c2c1 [Compound A, reference compound] next.
*A* 3.7

*Q* Try COc1cc2oc(C)nc2cc1CCN1CCC(n2ccc3ccc(C(N)=O)cc32)CC1 [Compound 4] next.
*A* 0.9

*Q* Try COc1ccc2c(c1CCN1CCC(n3ccc4ccc(C(N)=O)cc43)CC1)CCN(C)C2=O [Compound 34] next.
*A* 0.8

*Q* Try COc1ccc2ncccc2c1CCN1CCC(n2ccc3ccc(C(N)=O)cc32)CC1 [Compound 30] next.
*A* 1

*Q* Try COc1cc2ccccc2cc1CCN1CCC(n2ccc3ccc(C(N)=O)cc32)CC1 [Compound 45] next.
*A* 1.2

*Q* Try COc1ccc2oc(C)nc2c1CCN1CCC(n2ccc3ccc(C(N)=O)cc32)CC1 [Compound 7] next.
*A* 0.7

Source of measurements: patent US20050256103A1
